Assay: Solubility pH 7
Conditions: pH 7, aqueous buffer
Assay metric: solubility (µg/mL)

A selection of reference data follows.
C[C@H](NC(=O)CN1CCOCC1)C(=O)N[C@@H](Cc1ccc2c(c1)CC(=O)N2)C(=O)N[C@@H](CC1CCCC1)C(=O)[C@@]1(C)CO1 [Compound C-1081] | 2760
C[C@H](NC(=O)CN1CCOCC1)C(=O)N[C@@H](Cc1ccc2cc[nH]c2c1)C(=O)N[C@@H](CC1CCCC1)C(=O)[C@@]1(C)CO1 [Compound C-1124] | 56.5
COc1ccc([C@H](O)[C@H](NC(=O)[C@H](C)NC(=O)CN2CCOCC2)C(=O)N[C@@H](CC2CCCC2)C(=O)[C@@]2(C)CO2)cc1 [Compound C-1023] | 3870
COc1ccc(C[C@H](NC(=O)[C@H](C)NC(=O)CN2CCC(C(F)(F)F)CC2)C(=O)N[C@@H](CC2CCCC2)C(=O)[C@@]2(C)CO2)cc1 [Compound C-1047] | 24.1
COc1ccc(C[C@H](NC(=O)[C@H](C)NC(=O)CN2CCOCC2)C(=O)N[C@@H](CC2=CCCC2)C(=O)[C@@]2(C)CO2)cc1 [Compound C-1009] | 2730

[1] COc1ccc(C[C@H](NC(=O)[C@H](C)NC(=O)CN2CCOCC2)C(=O)N[C@@H](Cc2ccc(C#N)cc2)C(=O)[C@@]2(C)CO2)cc1 [Compound C-1163]
[2] C[C@H](NC(=O)CN1CCOCC1)C(=O)N[C@@H](Cc1ccc(S(C)(=O)=O)cc1)C(=O)N[C@@H](CC1=CCCC1)C(=O)[C@@]1(C)CO1 [Compound C-1125]
Request: Just tell me: smaller solubility value, 1 or 2 ? Select an item and report its label.
Result: 1

* * *

Biological target: proteasome subunit β5 (beta5) (Homo sapiens)
Construct: Lysate from the human acute lymphoblastic leukemia cell line, MOLT-4; endogenous in cells; host or cells: MOLT-4
Test: Proteasome active-site ELISA (ProCISE), beta5, MOLT-4 lysate
Format: biochemical
Conditions: MOLT4 lysate, human, 1 h continuous treatment, 25° C.
Text: Test compounds were serially diluted in DMSO at 100× concentration, then diluted to 10× in aqueous hypotonic lysis buffer. […] A chemiluminescent substrate was used to generate signal associated with HRP binding, which was detected on a plate reader. Luminescent signal was normalized to protein content, then, percent activity calculated relative to DMSO-treated controls to generate IC50 curves.
pIC50: −log10 of the molar value.
Assay metric: pIC50

COc1ccc(C[C@H](NC(=O)[C@H](C)NC(=O)CN2CCS(=O)(=O)CC2)C(=O)N[C@@H](CC2=CCCCC2)C(=O)[C@@]2(C)CO2)cc1 | 5.38

[I] COc1ccc(C[C@H](NC(=O)[C@@H](C)NC(=O)C2CC(=O)C2)C(=O)N[C@@H](CC2CCCC2)C(=O)[C@@]2(C)CO2)cc1
[II] COc1ccc(C[C@H](NC(=O)[C@@H](C)NC(=O)C2CC3(COC3)C2)C(=O)N[C@@H](CC2=CCCC2)C(=O)[C@@]2(C)CO2)cc1
[III] COc1ccc(C[C@H](NC(=O)[C@H](C)NC(=O)CN2CCOCC2)C(=O)N[C@@H](CC2=CCOCC2)C(=O)[C@@]2(C)CO2)cc1
[IV] COc1ccc(C[C@H](NC(=O)[C@@H](NC(=O)CN2CCOCC2)[C@H](C)O)C(=O)N[C@@H](Cc2ccccc2)C(=O)[C@@]2(C)CO2)cc1
Request: Put these in order: smallest pIC50 first, largest last. Write the labels, ordered according to the request.
Result: III, I, II, IV
(III: 4.35, I: 5.42, II: 6.35, IV: 6.83)

[1] COc1ccc(C[C@H](NC(=O)[C@H](C)NC(=O)CN2CCOCC2)C(=O)N[C@@H](Cc2ccccc2)C(=O)[C@@]2(C)CO2)cc1OC
[2] C[C@@H](NC(=O)[C@H]1CC[C@H](O)CC1)C(=O)N[C@@H](Cc1ccc2[nH]cnc2c1)C(=O)N[C@@H](CC1CCCC1)C(=O)[C@@]1(C)CO1
Request: Just tell me: smaller pIC50 value, 1 or 2 ? Select an item and report its label.
Result: 2
(2: 5.49, 1: 6.18)

[A] C[C@H](NC(=O)CN1CCOCC1)C(=O)N[C@@H](Cc1ccc2[nH]ncc2c1)C(=O)N[C@@H](CC1CCCC1)C(=O)[C@@]1(C)CO1
[B] C[C@H](NC(=O)CN1CCOCC1)C(=O)N[C@@H](Cc1ccc2c(c1)OCO2)C(=O)N[C@@H](CC1CCCC1)C(=O)[C@H]1CO1
Request: Select one: A or B . Criterion: greater recorded pIC50. Select an item and report its label.
Result: B

[1] COc1ccc(C[C@H](NC(=O)[C@@H](C)NC(=O)C2CCCC2)C(=O)N[C@@H](CC2CCCC2)C(=O)[C@@]2(C)CO2)cc1
[2] COc1ccc(C[C@H](NC(=O)CNC(=O)CN2CCOCC2)C(=O)N[C@@H](Cc2ccccc2)C(=O)[C@@]2(C)CO2)cc1
Request: Just tell me: smaller pIC50 value, 1 or 2 ? Select an item and report its label.
Result: 2
(2: 5.38, 1: 5.72)
